The values you see were collected from patent US20220081435A1.

Test System: AR protein (Homo sapiens, UniProt P10275, T878A)
Construct: The percent AR protein degradation induced by these compounds at various concentrations in LNCaP cells; host or cells: LNCaP
Sequence (P10275 1-920 T878A): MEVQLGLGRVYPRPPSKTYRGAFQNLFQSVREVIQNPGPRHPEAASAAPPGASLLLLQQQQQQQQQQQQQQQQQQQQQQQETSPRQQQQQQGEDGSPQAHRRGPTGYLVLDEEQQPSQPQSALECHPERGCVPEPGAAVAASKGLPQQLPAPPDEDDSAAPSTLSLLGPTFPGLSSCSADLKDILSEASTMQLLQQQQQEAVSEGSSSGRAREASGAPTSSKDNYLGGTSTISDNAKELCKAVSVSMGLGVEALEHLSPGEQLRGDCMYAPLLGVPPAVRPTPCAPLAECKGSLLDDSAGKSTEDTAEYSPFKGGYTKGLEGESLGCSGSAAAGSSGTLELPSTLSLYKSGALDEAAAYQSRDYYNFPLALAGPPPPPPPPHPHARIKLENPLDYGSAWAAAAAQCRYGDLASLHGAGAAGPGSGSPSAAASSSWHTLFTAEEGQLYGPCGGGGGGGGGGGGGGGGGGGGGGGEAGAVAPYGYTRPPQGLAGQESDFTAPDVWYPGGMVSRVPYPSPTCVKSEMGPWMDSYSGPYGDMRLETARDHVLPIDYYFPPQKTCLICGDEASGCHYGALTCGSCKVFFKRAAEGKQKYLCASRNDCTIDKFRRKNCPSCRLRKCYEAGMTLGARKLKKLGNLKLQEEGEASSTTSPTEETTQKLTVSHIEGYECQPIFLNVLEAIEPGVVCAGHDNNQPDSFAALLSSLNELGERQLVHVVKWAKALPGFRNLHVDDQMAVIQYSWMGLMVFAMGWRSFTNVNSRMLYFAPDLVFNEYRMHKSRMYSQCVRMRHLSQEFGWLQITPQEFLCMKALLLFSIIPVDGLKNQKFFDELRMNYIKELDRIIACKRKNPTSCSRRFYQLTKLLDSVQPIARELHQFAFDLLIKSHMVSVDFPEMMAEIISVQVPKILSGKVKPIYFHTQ
Procedure Summary: AR protein degradation in LNCaP cells (Western blotting)
Type: cell-based
Assay Setup: LNCaP; 0.01 μM, treatment time 6 h, average of three independent experiments
The threshold is inclusive: Dmax at 0.01 µM of exactly 30% counts as yes (1); values below receive no (0).

Worked examples follow.
# Compound, Category
rows = [
    ("Cc1ncsc1-c1ccc([C@H](C)NC(=O)C2C[C@@H](O)CN2C(=O)[C@@H](NC(=O)CCN2CCN(c3ccc(C#Cc4ccc(N5C(=S)N(c6ccc(C#N)c(C(F)(F)F)c6)C(=O)C5(C)C)cc4)cn3)CC2)C(C)(C)C)cc1 (some centres unmarked)", "yes (1)"),
    ("Cc1cc([C@H](C(=O)N2C[C@H](O)C[C@H]2C(=O)N[C@@H](CC(=O)NCCCCCCCCCNC(=O)c2ccc(N3C(=S)N(c4ccc(C#N)c(C(F)(F)F)c4)C(=O)C3(C)C)cc2F)c2ccc(-c3scnc3C)cc2)C(C)C)on1", "no (0)"),
    ("Cc1ncsc1-c1ccc(CNC(=O)C2C[C@@H](O)CN2C(=O)[C@@H](NC(=O)CCCCCCCCCCNC(=O)c2ccc(N3C(=S)N(c4ccc(C#N)c(C(F)(F)F)c4)C(=O)C3(C)C)cc2F)C(C)(C)C)cc1 (some centres unmarked)", "no (0)"),
    ("Cc1cc([C@H](C(=O)N2C[C@H](O)C[C@H]2C(=O)N[C@@H](CC(=O)N2CCC(N3CCC(C#Cc4ccc(N5C(=S)N(c6ccc(C#N)c(C(F)(F)F)c6)C(=O)C5(C)C)cc4)CC3)CC2)c2ccc(-c3scnc3C)cc2)C(C)C)on1", "no (0)"),
    ("Cc1cc([C@H](C(=O)N2C[C@H](O)C[C@H]2C(=O)N[C@@H](CC(=O)NCCCN2CCN(c3ccc(C#Cc4ccc(N5C(=S)N(c6ccc(C#N)c(C(F)(F)F)c6)C(=O)C5(C)C)cc4)cn3)CC2)c2ccc(-c3scnc3C)cc2)C(C)C)on1", "no (0)"),
]

-- ask hey, is Dmax at 0.01 µM for this one >= 30%? Cc1ncsc1-c1ccc(CNC(=O)C2C[C@@H](O)CN2C(=O)[C@@H](NC(=O)CCCCCCCCCNC(=O)c2ccc(N3C(=S)N(c4ccc(C#N)c(C(F)(F)F)c4)C(=O)C3(C)C)cc2F)C(C)(C)C)cc1 (some centres unmarked)
-- reply no (0)

-- ask hey, is Dmax at 0.01 µM for this one >= 30%? Cc1ncsc1-c1ccc(CNC(=O)C2C[C@@H](O)CN2C(=O)[C@@H](NC(=O)CCCCCCCCNC(=O)c2ccc(N3C(=S)N(c4ccc(C#N)c(C(F)(F)F)c4)C(=O)C3(C)C)cc2F)C(C)(C)C)cc1 (some centres unmarked)
-- reply no (0)

-- ask hey, is Dmax at 0.01 µM for this one >= 30%? Cc1ncsc1-c1ccc([C@H](C)NC(=O)C2C[C@@H](O)CN2C(=O)[C@@H](NC(=O)CCCN2CCN(c3ccc(C#Cc4ccc(N5C(=S)N(c6ccc(C#N)c(C(F)(F)F)c6)C(=O)C5(C)C)cc4)cn3)CC2)C(C)(C)C)cc1 (some centres unmarked)
-- reply yes (1)

====

Dmax at 0.1 µM: recorded values
Test System: AR protein (Homo sapiens, UniProt P10275, T878A)
Construct: The percent AR protein degradation induced by these compounds at various concentrations in LNCaP cells; host or cells: LNCaP
Sequence (P10275 1-920 T878A): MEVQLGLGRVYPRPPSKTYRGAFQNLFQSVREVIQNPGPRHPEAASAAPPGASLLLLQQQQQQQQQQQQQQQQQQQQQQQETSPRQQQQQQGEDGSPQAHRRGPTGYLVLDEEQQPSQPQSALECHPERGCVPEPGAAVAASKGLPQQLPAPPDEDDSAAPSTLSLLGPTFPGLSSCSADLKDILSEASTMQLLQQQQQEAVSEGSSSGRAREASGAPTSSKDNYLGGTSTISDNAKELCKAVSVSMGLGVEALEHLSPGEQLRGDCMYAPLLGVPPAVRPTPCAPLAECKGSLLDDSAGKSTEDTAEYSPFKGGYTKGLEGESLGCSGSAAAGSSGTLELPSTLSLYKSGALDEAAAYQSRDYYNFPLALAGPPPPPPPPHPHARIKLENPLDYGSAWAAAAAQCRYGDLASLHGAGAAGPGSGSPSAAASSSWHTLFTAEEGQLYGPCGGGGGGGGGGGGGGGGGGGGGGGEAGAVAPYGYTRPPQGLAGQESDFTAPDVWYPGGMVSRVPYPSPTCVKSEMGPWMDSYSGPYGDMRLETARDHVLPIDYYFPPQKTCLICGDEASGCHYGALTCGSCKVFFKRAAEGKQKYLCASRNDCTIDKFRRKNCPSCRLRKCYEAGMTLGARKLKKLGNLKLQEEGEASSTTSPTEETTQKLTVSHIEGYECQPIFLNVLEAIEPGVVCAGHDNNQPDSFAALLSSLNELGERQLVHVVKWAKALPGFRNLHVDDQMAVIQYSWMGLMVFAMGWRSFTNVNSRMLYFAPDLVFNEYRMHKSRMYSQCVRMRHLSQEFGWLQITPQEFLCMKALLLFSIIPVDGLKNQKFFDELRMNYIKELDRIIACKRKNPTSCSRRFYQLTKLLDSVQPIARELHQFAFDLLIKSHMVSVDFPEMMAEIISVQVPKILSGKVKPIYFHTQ
Procedure Summary: AR protein degradation in LNCaP cells (Western blotting)
Type: cell-based
Assay Setup: LNCaP; 0.1 μM, treatment time 6 h, average of three independent experiments; read-out: % AR protein degradation in LNCaP Cells
Give the value, in units of %, as a plain number.

Some solved entries appear below for comparison.
# Molecule, Assay Value
measured = [
    ("Cc1ncsc1-c1ccc([C@H](C)NC(=O)C2C[C@@H](O)CN2C(=O)[C@@H](NC(=O)CCN2CCN(c3ccc(C#Cc4ccc(N5C(=S)N(c6ccc(C#N)c(C(F)(F)F)c6)C(=O)C5(C)C)cc4)cn3)CC2)C(C)(C)C)cc1 (stereo partly drawn)", 51),
    ("Cc1cc([C@H](C(=O)N2C[C@H](O)C[C@H]2C(=O)N[C@@H](CC(=O)NCCCCCCCCCNC(=O)c2ccc(N3C(=S)N(c4ccc(C#N)c(C(F)(F)F)c4)C(=O)C3(C)C)cc2F)c2ccc(-c3scnc3C)cc2)C(C)C)on1", 50),
]

--- query ---
molecule Cc1ncsc1-c1ccc(CNC(=O)C2C[C@@H](O)CN2C(=O)[C@@H](NC(=O)CCCN2CCN(c3ccc(C#Cc4ccc(N5C(=S)N(c6ccc(C#N)c(C(F)(F)F)c6)C(=O)C5(C)C)cc4)cn3)CC2)C(C)(C)C)cc1 (stereo partly drawn) , Dmax at 0.1 µM observed: 50
